- Assay Summary: PK study of antifungal nasal spray, plasma level after intranasal dosing
- Type: in vivo, Gottingen mini-pigs
- Experimental Context: both sexes, Gottingen, minipig, plasma, other: intranasal, 4 hour after intranasal dosing, 5% PEG-12 GDM in saline, individual animals; read-out: Posaconazole Level in Mini-pig Plasma
Measured Parameter: concentration at 4 h (ng/mL)
// note: answer is a bare numeric in ng/mL

Field request: concentration at 4 h | item: CC[C@@H]([C@H](C)O)n1ncn(-c2ccc(N3CCN(c4ccc(OC[C@@H]5CO[C@@](Cn6cncn6)(c6ccc(F)cc6F)C5)cc4)CC3)cc2)c1=O
1.26

###

- Tested on: Ergosterol Biosynthesis, Candida albicans_C286
- Assay Summary: inhibition of ergosterol biosynthesis
- Assay type: cell-based, Candida albicans
- Experimental Context: Candida albicans_C286, RPMI-1640, 30° C., 48 h
Measured Parameter: IC50 (µM)
Reply with just the number (in µM).

Entry under review: CCC(C)n1ncn(-c2ccc(N3CCN(c4ccc(OCC5COC(Cn6cncn6)(c6ccc(Cl)cc6Cl)O5)cc4)CC3)cc2)c1=O (stereo not shown) . Reported IC50?
0.0391
